- Tested on: HOP-62
- test: NCI tumour cell line growth inhibition, 48 h
Activity calls are given as the source filed them. Cut-off read from the data, not from the text of the source: active = GI50 up to about 1.1 µM and inactive = higher.
measured property: GI50

Recorded GI50 (molecule O=C1C=CC2=[N+]([O-])C(c3ccccc3)(c3ccccc3)/C(=N\c3ccccc3)C2=C1 ): 14.6 µM (inactive)

The reported GI50 of the molecule Cc1c2cnccc2nc2[nH]c3ccncc3c12 was 2.17 µM (inactive)

So for c1cc2c(cc1C(N1CCNCC1)N1CCNCC1)OCO2 , the logged GI50 turned out to be > 100 µM (inactive)

Reported GI50 ( CSc1cnc2ccccc2c1Sc1cn(C)c2ccccc2c1=O ) = 18 µM (inactive)

Documented GI50 of Cc1ccc2nc3n(c2c1)C(c1c(F)cccc1F)SC3 (stereo unspecified) : > 100 µM (inactive)

# GI50 of COc1ccc2c(c1)CCN=C2Cc1cc(OC)c(OC)cc1CCCl = 3.08 µM (inactive)

The reported GI50 of the molecule COc1ccc(S(=O)(=O)Nc2ccc(-c3csc(N4C(=O)/C(=C/C=C\c5ccccc5)N=C4c4ccccc4)n3)cc2)cc1Cl was 31.3 µM (inactive)

Given item COc1ccc(CCNC(=O)[C@H]2CCCC[C@@H]2CCO)cc1OC , the value recorded as its GI50 is > 100 µM (inactive)

Form: molecule = CN(C)c1ccc(/C(Br)=C2\OC(=O)c3ccccc32)cc1 ; GI50 = > 100 µM (inactive)

In plain terms, N#Cc1nc(-c2ccsc2)oc1N has a documented GI50 of > 100 µM (inactive)

molecule CC(CCCC1SCC2NC(=O)NC21)C(=O)O (stereo unspecified) , GI50 observed: > 100 µM (inactive)

* * *

- Tested on: OVCAR-4
- test: NCI tumour cell line growth inhibition, 48 h
Active and inactive are the calls of the source. Rule as the data show it: active = GI50 up to about 1.1 µM and inactive = higher.
The reply should name one outcome from active, inactive

Please review the following examples before continuing.
# compound, answer label
rows = [
    ("O=C(OCC(OC(=O)c1ccccc1)C1CC(C(O)C2CCCCC2)C(=O)O1)c1ccccc1 (stereo not given)", "inactive"),
    ("CCCSc1ccc2[nH]c(/N=C/c3ccccc3)cc2c1", "inactive"),
    ("Brc1ccc(-c2nc(-c3ccc(Br)cc3)n(-c3ccccc3)n2)cc1", "inactive"),
    ("CN(C)CCNc1ccc2c(=O)n(CCN(C)C)c(=O)n3c4ccc(O)cc4c(=O)c1c23", "active"),
]

**Query** Record lookup: outcome of this test for CC1C(c2ccc3c(c2)OCO3)c2cc3c(cc2OC1N1CCOCC1)OCO3 (stereo not given) ?
**Result** inactive

* * *

- Test system: SF-295
- test: NCI tumour cell line growth inhibition, 48 h
Activity calls are given as the source filed them. No stated cut-off is given here; in the data, active = GI50 up to about 1.1 µM and inactive = higher.
Reported GI50 values for a set of compounds

Example results:
# compound, assay result
data = [
    ("COc1ccc2c(c1)C(N)CC2=O (stereo not given)", "> 100 µM (inactive)"),
    ("COc1ccc(/C=C/c2cc(OC)cc(OC)c2)cc1", "4.38 µM (inactive)"),
    ("COc1cc(S(=O)(=O)Nc2nc(-c3ccc(/N=C/c4ccccc4O)cc3)cs2)ccc1Cl", "36 µM (inactive)"),
    ("COc1ccc(NC(=O)CC(=O)n2nc(C)c(/N=N/c3cccc(C)c3)c2C)cc1", "> 100 µM (inactive)"),
]

For CSc1cnc2ccccc2c1Sc1cn(C)c2ccccc2c1=O the compound record lists GI50 as 22.6 µM (inactive)

* * *

- Tested on: SK-MEL-2
- test: NCI tumour cell line growth inhibition, 48 h
Calls of active or inactive are those of the source. Cut-off read from the data, not from the text of the source: active = GI50 up to about 1.1 µM and inactive = higher.
# GI50 listing for each entry below

Study these solved cases before continuing.
# molecule, GI50
data = [
    ("COc1cc(OC)cc(N(C)Cc2cnc3nc(N)nc(N)c3c2C)c1", "> 51.5 µM (inactive)"),
    ("O=C(c1cccs1)c1nccc2c1cnc1ccccc12", "> 100 µM (inactive)"),
    ("COC(=O)c1ccccc1/C=C1\\Cc2c(C)c3c(c(C)c2C1=O)CCC3", "6.27 µM (inactive)"),
]

Notebook: O=c1cc(CNC2CC3CCC2C3)[nH]c(=O)[nH]1 (stereo unspecified) , GI50 read as > 100 µM (inactive)

Measured GI50, O=C1CSc2nc3ccccc3n2/C=N\N1 : > 100 µM (inactive)

O=C1CCc2ccc(O)c(c2)Oc2ccc(cc2)C(Sc2ccccc2)CCO1 (stereo unspecified) yielded GI50 of 15.8 µM (inactive)

* * *

- Tested on: HT-29
- test: NCI tumour cell line growth inhibition, 48 h
Activity calls are given as the source filed them. Cut-off read from the data, not from the text of the source: active = GI50 up to about 1.1 µM and inactive = higher.
Your reply should match one of these outcome classes. true = active, false = inactive

# compound, target or system, answer label
rows = [
    ("CCN(CC)CC[n+]1ccc2c(C)c3[nH]c4ccccc4c3c(C)c2c1", "HT-29", "true"),
    ("c1nc(N2CC2)c2cnn(C3CCCCO3)c2n1 (stereo unspecified)", "HT-29", "false"),
    ("CCC(C)NC(=S)N/N=C(\\C)c1ccccn1 (stereo unspecified)", "HT-29", "true"),
    ("CC1CC[P+](c2ccccc2)(c2ccccc2)CC1", "HT-29", "false"),
    ("CCCCN(CC)C(=O)C(=O)Cc1nc2ccc(C(=O)c3ccccc3)cc2nc1O", "HT-29", "false"),
]

Next compound, please.
**Query** Outcome logged for CN(C)c1ccc(/C(Br)=C2\OC(=O)c3ccccc32)cc1 in this assay:
**Result** false

* * *

- Test system: HCC 2998
- test: NCI tumour cell line growth inhibition, 48 h
Activity calls are given as the source filed them. Cut-off read from the data, not from the text of the source: active = GI50 up to about 1.1 µM and inactive = higher.
measured property: GI50

# molecule, measured property, assay result
data = [
    ("C=C(C)C1CC2=C(O1)C(=O)c1cccc(O)c1C2=O (centres undefined)", "GI50", "1.99 µM (inactive)"),
]

What the record says about O=C1CCc2ccc(O)c(c2)Oc2ccc(cc2)C(Sc2ccccc2)CCO1 (centres undefined) : GI50 is 17.1 µM (inactive)

Data point: CCN(CC)CCCC(C)NC(=O)c1cc(-c2nccn2C)nc2ccc(C)cc12 (centres undefined) ; GI50 = > 100 µM (inactive)

Field GI50 (entry CC/C(=N\NS(=O)(=O)c1ccccc1)c1ccccc1 ) reads > 100 µM (inactive)

The molecule listed as CCOC(=O)C1=C(C(=O)OCC)C2(c3ccccc3)N(O1)c1ccccc1C2(C)C (centres undefined) shows GI50 equal to 93.1 µM (inactive)

Per the record, Cc1cccc2nc3cccc(C(=O)NCCC[N+](C)(CCCNC(=O)c4cccc5nc6cccc(C)c6nc45)Cc4c([N+](=O)[O-])ncn4C)c3nc12 has GI50 of 1.67 µM (inactive)

The value of GI50 measured for the molecule CCOC(OC1=C(C#N)CCCC1)C(CC)[Se]c1ccccc1 (centres undefined) turned out to be 35.2 µM (inactive)

The recorded GI50 for O=C(c1cccs1)c1nccc2c1cnc1ccccc12 is > 100 µM (inactive)

Please fill in: GI50 reported for C=CCN(CC=C)Cn1c(=S)sc2ccccc21 = > 100 µM (inactive)

The measured GI50 associated with COc1ccc(/C=C/c2cc(OC)cc(OC)c2)cc1 reads 9.79 µM (inactive)

Form field GI50, entry COc1cc2oc(=O)ccc2cc1C1OC(=O)C2OC21C (centres undefined) : > 100 µM (inactive)

* * *

GI50 for assorted compounds
- Test system: HL-60
- test: NCI tumour cell line growth inhibition, 48 h
Active and inactive are the calls of the source. Rule as the data show it: active = GI50 up to about 1.1 µM and inactive = higher.

Take a look at these entries with their results.
# compound, target or system, GI50
records = [
    ("O=Cc1cc2c(o1)C(=O)c1ccccc1C2=O", "HL-60", "0.286 µM (active)"),
    ("COP(=O)(OC)/C(=C/c1cn(C(c2ccccc2)(c2ccccc2)c2ccccc2)cn1)NC=O", "HL-60", "> 100 µM (inactive)"),
    ("COc1cc2c(cc1OC)C(=O)N(c1ccc(OCCN3CCCC3)cc1)C2", "HL-60", "> 100 µM (inactive)"),
    ("Cc1ccccc1NC(=O)C(=O)Cc1cnc2ccccc2n1", "HL-60", "> 100 µM (inactive)"),
]

# CCCc1c(Cl)nc(Cl)nc1Cl with HL-60: GI50 is 0.48 µM (active)

Value (GI50, HL-60) for record CC/C(=N\NS(=O)(=O)c1ccccc1)c1ccccc1 = > 100 µM (inactive)

The observed GI50 for CCC(C)NC(=S)N/N=C(\C)c1ccccn1 (stereo not drawn) when tested with HL-60 stands at < 0.01 µM (active)

* * *

- Tested on: SK-MEL-28
- test: NCI tumour cell line growth inhibition, 48 h
Activity calls are given as the source filed them. Cut-off read from the data, not from the text of the source: active = GI50 up to about 1.1 µM and inactive = higher.
Below: a set of entries, each annotated with reported GI50.

# compound, GI50
data = [
    ("CC1OC(OC2C(O)COC(OC3C(C)OC(OC4C(OC(=O)[C@]56CCC(C)(C)C[C@@H]5C5=CCC7[C@@]8(C)C[C@H](O)[C@H](OC9OC(CO)C(O)C(OC%10OC(CO)C(O)C(O)C%10O)C9O)[C@@](C)(CO)[C@@H]8CC[C@@]7(C)[C@]5(C)CC6)OCC(O)C4O)C(O)C3OC3OCC(O)(CO)C3O)C2O)C(O)C(O)C1O (some centres not stated)", "6.24 µM (inactive)"),
    ("c1ccc(N/N=N/c2ccc(-c3nc4ccccc4[nH]3)cc2)nc1", "20.7 µM (inactive)"),
    ("[O-]/[N+](=N\\c1ccccc1CO)c1ccccc1CO", "> 100 µM (inactive)"),
    ("CCOc1snc(C(Cl)(Cl)Cl)c1Cl", "25.5 µM (inactive)"),
    ("C=CC(=O)NCNC(=O)C=C", "> 100 µM (inactive)"),
    ("OCCN(C1=NCCN1)/[N+](=C/c1ccc(Cl)cc1)[CH-]c1ccc(Cl)cc1", "> 100 µM (inactive)"),
]

Briefly, GI50 measured for CCC1(CC)C(=O)NN(C(=O)c2ccccc2)C1=O : > 100 µM (inactive)

The recorded GI50 for COc1ccc(OC)c(C#Cc2ccc(OC)c(C(=O)NCCc3ccc(F)cc3)c2)c1 is 1.73 µM (inactive)

Noted for Cc1ccc2ccc(O)cc2c1 : its GI50 reads > 100 µM (inactive)

// COc1ccc(/C=C2\N=C(SC)N(C)C2=O)cc1 : GI50 value = > 100 µM (inactive)

GI50 reported for this compound CCN(CC)CCNC(=O)c1ccc(C)c(OCc2ccccc2)c1[N+](=O)[O-] : 19.4 µM (inactive)

Lookup result for CCOC(OC1=C(C#N)CCCC1)C(CC)[Se]c1ccccc1 (configuration not stated) ; measured GI50: 23.6 µM (inactive)
